# protocol: self-splicing fitness, log relative to wild type (ln ratio); higher = more splicing; Tetrahymena group I intron in knt gene, E. coli kanamycin selection, DiMSum; sequences stand for … in CUCUCU…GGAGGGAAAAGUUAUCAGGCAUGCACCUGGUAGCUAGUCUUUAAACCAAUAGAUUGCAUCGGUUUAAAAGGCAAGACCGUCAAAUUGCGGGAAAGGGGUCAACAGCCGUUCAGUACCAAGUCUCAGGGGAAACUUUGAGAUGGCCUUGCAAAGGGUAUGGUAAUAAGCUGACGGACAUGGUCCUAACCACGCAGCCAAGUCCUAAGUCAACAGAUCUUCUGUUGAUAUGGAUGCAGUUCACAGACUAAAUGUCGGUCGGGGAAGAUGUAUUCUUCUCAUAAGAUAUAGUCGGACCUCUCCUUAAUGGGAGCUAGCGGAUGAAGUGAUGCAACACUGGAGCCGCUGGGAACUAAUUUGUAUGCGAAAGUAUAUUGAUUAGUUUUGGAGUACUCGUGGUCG;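 note: selection with 25 µg/mL kanamycin versus none on LB agar overnight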
# experimental context: 30 °C
Binary call on self-splicing fitness (ln): class 1 from -1 upward, class 0 beneath that.

[in] Does the sequence GUGCAGCAAUAUUACGAUCU have recorded self-splicing fitness (ln) that is -1 or more?
[out] class 1

[in] Is the recorded value of self-splicing fitness (ln) equal to or greater than -1 for this sequence? CUUCAGCAAUAUUACGCUAU
[out] class 0

[in] Quick check, self-splicing fitness (ln) >= -1? GUCAAGCAAUAUUACGCGAA
[out] class 0

Further cases:
[in] Dear colleague, could you confirm whether UGCAAGCAAUAUUACGGCUC has self-splicing fitness (ln) at or above -1?
[out] class 0

[in] Decide: self-splicing fitness (ln) of CCUGAGCAAUAUUACGCUAU >= -1?
[out] class 0

[in] Entry GCCGAGCAAUAUUACGGGUC : is its self-splicing fitness (ln) no less than -1?
[out] class 0

[in] Record CCGAAGCAAUAUUACGUACU ; criterion: self-splicing fitness (ln) no lower than -1. Met?
[out] class 0

[in] Answer whether self-splicing fitness (ln) of CUACAGCAAUAUUACGUUGG is greater than or equal to -1.
[out] class 0

[in] Dear colleague, could you confirm whether AAAUAGCAAUAUUACGAAUA has self-splicing fitness (ln) at or above -1?
[out] class 0

[in] Form field: self-splicing fitness (ln) at least -1? Entry: CGGCAGCAAUAUUACGAUGA
[out] class 0

[in] Reported self-splicing fitness (ln) reaches at least -1 for ACUCAGCAAUAUUACGGAUA ?
[out] class 1

[in] Decide: self-splicing fitness (ln) of CACCAGCAAUAUUACGGCCU >= -1?
[out] class 0

[in] Identify whether the reported self-splicing fitness (ln) of the following sequence is -1 or greater: AAAAAGCAAUAUUACGGGGC
[out] class 0

[in] In plain terms: is recorded self-splicing fitness (ln) at least -1 for ACACAGCAAUAUUACGACCA ?
[out] class 1

[in] Could you please find out whether UCCGAGCAAUAUUACGUUUA has self-splicing fitness (ln) that meets -1 or exceeds it?
[out] class 0

[in] Check if self-splicing fitness (ln) >= -1 (inclusive). Item: AUAAAGCAAUAUUACGAGGA
[out] class 0

[in] # check: self-splicing fitness (ln) of CAGCAGCAAUAUUACGGCCC is greater than or equal to -1
[out] class 1

[in] Check this sequence for self-splicing fitness (ln) at or above -1: AAGAAGCAAUAUUACGUCUG
[out] class 1

[in] Tell me whether self-splicing fitness (ln) is at least -1 here: AUACAGCAAUAUUACGGUUU
[out] class 1

[in] Please indicate if the recorded self-splicing fitness (ln) for AUGCAGCAAUAUUACGAGAG meets or exceeds -1.
[out] class 0

[in] Does GAACAGCAAUAUUACGUGAG have a reported self-splicing fitness (ln) of at least -1?
[out] class 1

[in] Dear colleague, could you confirm whether UGAAAGCAAUAUUACGAUUA has self-splicing fitness (ln) at or above -1?
[out] class 1

---

# protocol: self-splicing fitness, log relative to wild type (ln ratio); higher = more splicing; Tetrahymena group I intron in knt gene, E. coli kanamycin selection, DiMSum; sequences stand for … in CUCUCU…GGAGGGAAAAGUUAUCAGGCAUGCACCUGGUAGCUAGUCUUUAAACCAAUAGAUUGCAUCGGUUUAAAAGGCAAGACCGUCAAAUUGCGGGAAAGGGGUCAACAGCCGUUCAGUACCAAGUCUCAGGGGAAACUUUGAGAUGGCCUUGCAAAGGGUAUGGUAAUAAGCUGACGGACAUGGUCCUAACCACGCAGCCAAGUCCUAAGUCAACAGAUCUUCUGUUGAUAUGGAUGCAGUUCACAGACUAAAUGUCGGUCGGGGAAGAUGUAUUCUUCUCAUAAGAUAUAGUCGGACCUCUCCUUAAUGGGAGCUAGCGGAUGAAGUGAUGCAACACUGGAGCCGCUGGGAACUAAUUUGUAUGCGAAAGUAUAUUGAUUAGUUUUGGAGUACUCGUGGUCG
# experimental context: 37 °C
I would appreciate it if you labelled entries fulfilled when self-splicing fitness (ln) is -0.8 or higher, otherwise not fulfilled.

Study these solved cases before continuing.
[in] Item AAGCAGCAAUAUUACGCACG with self-splicing fitness (ln) of -0.8 or above?
[out] fulfilled

[in] Has AGGAAGCAAUAUUACGGUGA a recorded self-splicing fitness (ln) greater than or equal to -0.8?
[out] not fulfilled

[in] Please indicate if the recorded self-splicing fitness (ln) for CUAUAGCAAUAUUACGGUGG meets or exceeds -0.8.
[out] not fulfilled

[in] Given GCUCAGCAAUAUUACGAGUU , state whether its self-splicing fitness (ln) is at least -0.8.
[out] not fulfilled

[in] Does GUCUAGCAAUAUUACGGACG have a reported self-splicing fitness (ln) of at least -0.8?
[out] fulfilled

[in] Reported self-splicing fitness (ln) reaches at least -0.8 for ACGUAGCAAUAUUACGACAA ?
[out] fulfilled

[in] Dear colleague, could you confirm whether AUUAAGCAAUAUUACGGCAA has self-splicing fitness (ln) at or above -0.8?
[out] fulfilled

[in] Decide: is the reported value of self-splicing fitness (ln) for CGCCAGCAAUAUUACGGGAC equal to or greater than -0.8?
[out] not fulfilled

[in] Determine whether this sequence has self-splicing fitness (ln) no lower than -0.8: AACCAGCAAUAUUACGGGGG
[out] not fulfilled

[in] Is reported self-splicing fitness (ln) greater than or equal to -0.8 here: GCCAAGCAAUAUUACGUAUC
[out] fulfilled

Further cases:
[in] // inclusive: self-splicing fitness (ln) at least -0.8? input: AUUGAGCAAUAUUACGGCAG
[out] not fulfilled

[in] Decide: self-splicing fitness (ln) of AUUGAGCAAUAUUACGACAC >= -0.8?
[out] not fulfilled

[in] // inclusive: self-splicing fitness (ln) at least -0.8? input: AGCAAGCAAUAUUACGCCGU
[out] not fulfilled

[in] Determine whether measured self-splicing fitness (ln) meets or exceeds -0.8 for CAUUAGCAAUAUUACGGCGU
[out] not fulfilled

[in] Record AAUAAGCAAUAUUACGACCA ; criterion: self-splicing fitness (ln) no lower than -0.8. Met?
[out] fulfilled

[in] Determine whether measured self-splicing fitness (ln) meets or exceeds -0.8 for CGACAGCAAUAUUACGCCAA
[out] not fulfilled

[in] Check if self-splicing fitness (ln) >= -0.8 (inclusive). Item: GAUCAGCAAUAUUACGGUCG
[out] fulfilled

[in] Could you please find out whether CCACAGCAAUAUUACGCCGA has self-splicing fitness (ln) that meets -0.8 or exceeds it?
[out] not fulfilled

[in] Dear colleague, could you confirm whether UCCUAGCAAUAUUACGUGCU has self-splicing fitness (ln) at or above -0.8?
[out] not fulfilled

[in] Evaluate UCCCAGCAAUAUUACGCAGG : self-splicing fitness (ln) at minimum -0.8?
[out] not fulfilled

[in] Hi team, for GCCCAGCAAUAUUACGGCCU , is the recorded self-splicing fitness (ln) at or above -0.8?
[out] not fulfilled

[in] Check if self-splicing fitness (ln) >= -0.8 (inclusive). Item: AUCCAGCAAUAUUACGGAAG
[out] not fulfilled

[in] Record AGUCAGCAAUAUUACGUACA ; criterion: self-splicing fitness (ln) no lower than -0.8. Met?
[out] fulfilled

[in] # bool: self-splicing fitness (ln) of GAUAAGCAAUAUUACGCUUG >= -0.8
[out] not fulfilled

[in] Item GGAGAGCAAUAUUACGUUUG with self-splicing fitness (ln) of -0.8 or above?
[out] not fulfilled

[in] Identify whether the reported self-splicing fitness (ln) of the following sequence is -0.8 or greater: UCAAAGCAAUAUUACGUGGA
[out] not fulfilled

[in] Reported self-splicing fitness (ln) reaches at least -0.8 for CCGCAGCAAUAUUACGAGUG ?
[out] fulfilled

[in] Does the sequence ACCCAGCAAUAUUACGGGAU have recorded self-splicing fitness (ln) that is -0.8 or more?
[out] not fulfilled

[in] Dear colleague, could you confirm whether AUGGAGCAAUAUUACGAUAC has self-splicing fitness (ln) at or above -0.8?
[out] not fulfilled

Hello, the source for this data is the supplement of paper PMC7877785, in case you need it.
